Listing of recorded pIC50 by entry.
measured.on: UniProt:Q08499
Sequence (Q08499 whole entry): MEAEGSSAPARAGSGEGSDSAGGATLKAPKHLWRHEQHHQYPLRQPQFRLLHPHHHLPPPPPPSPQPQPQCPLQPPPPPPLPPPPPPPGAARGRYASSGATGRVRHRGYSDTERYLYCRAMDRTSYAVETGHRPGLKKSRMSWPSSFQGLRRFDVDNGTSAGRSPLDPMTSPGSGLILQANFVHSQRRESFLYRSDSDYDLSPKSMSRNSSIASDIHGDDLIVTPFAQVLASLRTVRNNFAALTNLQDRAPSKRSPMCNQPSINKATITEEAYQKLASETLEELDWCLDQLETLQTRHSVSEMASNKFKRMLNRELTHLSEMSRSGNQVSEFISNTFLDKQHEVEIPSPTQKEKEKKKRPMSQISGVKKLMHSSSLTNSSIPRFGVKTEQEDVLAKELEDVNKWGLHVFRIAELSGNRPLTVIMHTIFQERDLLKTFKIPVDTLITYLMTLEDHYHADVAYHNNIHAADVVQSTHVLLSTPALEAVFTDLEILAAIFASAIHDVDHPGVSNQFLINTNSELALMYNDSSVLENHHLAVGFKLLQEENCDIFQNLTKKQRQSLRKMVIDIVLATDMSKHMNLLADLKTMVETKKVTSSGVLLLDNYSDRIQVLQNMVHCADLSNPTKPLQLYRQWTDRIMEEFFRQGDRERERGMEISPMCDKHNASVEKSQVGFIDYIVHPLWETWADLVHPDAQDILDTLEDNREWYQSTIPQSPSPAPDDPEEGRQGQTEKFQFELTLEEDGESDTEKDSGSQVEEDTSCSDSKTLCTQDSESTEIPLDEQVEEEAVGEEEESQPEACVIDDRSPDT
protocol.summary: In-vitro assay for PDE4 enzymes, real-time enzyme-coupled spectrophotometric assay (Table 9)
Format: biochemical
conditions: human PDE4D; activity class, Table 9; read-out: hPDE4D
pIC50: −log10 of the molar value.

Nc1ccc(Cc2ccc(OC(F)F)c(-c3cccc(Br)c3)c2F)cc1 [P-317]; > 5.30

Per the records, this compound ( COc1ccc(Cc2nnc(N)o2)cc1-c1cccc(Cl)c1 [P-306] ) has pIC50 equal to 4.70 to 5.30

Quick note, pIC50 for COc1ccc(Cc2ccc(F)cc2)nc1-c1cccc(C(F)(F)F)c1 [P-065] landed at > 5.30

Briefly, pIC50 measured for COc1ccc(Cc2ccc(NC(=O)CNC(=O)OC(C)(C)C)cc2)cc1-c1cccc([N+](=O)[O-])c1 [P-143] : > 5.30

Form: compound = COc1ccc(Cc2ccc(CN)c(O)c2)c(F)c1-c1cccc(Cl)c1 [P-296] ; pIC50 = > 5.30
